Data origin: ChEMBL document CHEMBL5724696

Consider the following compounds and their measured ER-phagy suppression readings.
Test system: U2OS
Test: Here: values are normalized to the positive (DMSO; basel flux = defined as 100% suppression) and negative (250nM Torin1; mTOR inhibitor; maximal inducer of autophagy defined as 0% suppression) control compounds and represented as % of ER-phagy suppression. […] The impact of autophagy induction on cells is complex and depends on the affected target. […] Of note, treatment concentrations may be sub-optimal for specific compounds, leading to false negative annotations.
Type: functional, Homo sapiens
Conditions: Compound Concentration 1 uM, Timepoint 60 hours, Culturing Media DMEM, 1 % Penicillin/Streptomycin, 10% Fetal bovin serum Add-On: blasticidin, Screening Media Control DMEM, 10% Fetal bovin serum Add-On: 1 µg/ml Doxycyclin, Screening Media Samples DMEM, 10% Fetal bovin serum Add-On: 1 µg/ml Doxycyclin 250nM Torin1
testReadout: ER-phagy suppression (%)

compoundsmiles=Cl.Cl.NC1(c2ccc(-c3nc4ccn5c(=O)[nH]nc5c4cc3-c3ccccc3)cc2)CCC1 tgt=U2OS testreadout="ER-phagy suppression" observed=60.1398
compoundsmiles=C[C@@H]1COCCN1c1cc(C2([S@](C)(=N)=O)CC2)nc(-c2cc[nH]c3nccc2-3)n1 tgt=U2OS testreadout="ER-phagy suppression" observed=-10.6655
compoundsmiles=O=C1Nc2ccc(I)cc2/C1=C/c1cc(Br)c(O)c(Br)c1 tgt=U2OS testreadout="ER-phagy suppression" observed=-13.1814
compoundsmiles=Cc1cc(C)c(-n2ccn3nc(-c4cccnc4)cc23)cc1NC(=O)c1cc(C#N)cc(S(F)(F)(F)(F)F)c1 tgt=U2OS testreadout="ER-phagy suppression" observed=6.537

###

System: U2OS
Assay: Here: values are normalized to the negative (DMSO; defined as 0% autophagy induction) and positive (250nM Torin1; mTOR inhibitor; defined as maximal inducer of autophagy = 100%) control compounds and represented as % of autophagy induction. […] The impact of autophagy induction on cells is complex and depends on the affected target. As such, the magnitude of a phenotype may not be equally mirrored in the %-value of autophagy induction and vice versa. The dynamics of the induction may indicate the mode of activation: e.g. activation via phosphorylation or a signaling cascade may occur fast, while activation via transcription factors may take considerably longer. […] Of note, treatment concentrations may be sub-optimal for specific compounds, leading to false negative annotations.
Format: functional, Homo sapiens
Details: Compound Concentration 2 uM, Timepoint 12 hours, Culturing Media DMEM, 1 % Penicillin/Streptomycin, 10% Fetal bovin serum Add-On: No, Screening Media Control DMEM, Screening Media Samples DMEM
Entries and their autophagy induction values follow.
testReadout: autophagy induction

compound=Cc1nnn(-c2ccc(-c3ccc(C4(C(=O)O)CC4)cc3)cc2)c1NC(=O)O[C@H](C)c1ccccc1 tgt=U2OS testreadout="autophagy induction" observed=5.693%
compound=O=C(O)CC/C=C\C[C@@H]1CO[C@H](c2ccccc2Cl)O[C@@H]1c1ccccc1O tgt=U2OS testreadout="autophagy induction" observed=-3.826%
compound=COC1CCN(c2cccc(-c3cc(NC(C)=O)nc(-n4nc(C)cc4C)n3)n2)CC1 tgt=U2OS testreadout="autophagy induction" observed=-5.934%
compound="COc1ccccc1CN[C@H]1C2CCN(CC2)[C@H]1C(c1ccccc1)c1ccccc1 [CP-96345]" tgt=U2OS testreadout="autophagy induction" observed=5.091%
compound="COc1ccc(CNC(=O)c2cc(-c3cncc(Cl)c3)cnc2-c2ccccn2)nc1OC [MK-1064]" tgt=U2OS testreadout="autophagy induction" observed=9.573%
compound=Cc1c(P(=S)(c2ccccc2)c2ccccc2)n2ccccc2[n+]1C/C=C/c1ccccc1.[Br-] tgt=U2OS testreadout="autophagy induction" observed=-8.9%
compound="Cc1c(F)cccc1NC(=O)Nc1ccc(Cl)c(S(=O)(=O)[C@H]2CCCNC2)c1O [DANIRIXIN]" tgt=U2OS testreadout="autophagy induction" observed=-6.206%
compound="C[C@H](Cc1cc2c(c(C(N)=O)c1)N(CCCO)CC2)NCCOc1ccccc1OCC(F)(F)F [SILODOSIN]" tgt=U2OS testreadout="autophagy induction" observed=-4.216%
compound=COc1cc(-n2cnc3cc(-c4ccc(Cl)cc4)sc3c2=O)ccc1OCCN1CCCC1 tgt=U2OS testreadout="autophagy induction" observed=-14.2965%

###

Reported autophagy induction values for a set of molecules
System: U2OS
Assay: Here: values are normalized to the negative (DMSO; defined as 0% autophagy induction) and positive (250nM Torin1; mTOR inhibitor; defined as maximal inducer of autophagy = 100%) control compounds and represented as % of autophagy induction. […] The impact of autophagy induction on cells is complex and depends on the affected target. As such, the magnitude of a phenotype may not be equally mirrored in the %-value of autophagy induction and vice versa. The dynamics of the induction may indicate the mode of activation: e.g. activation via phosphorylation or a signaling cascade may occur fast, while activation via transcription factors may take considerably longer. […] Of note, treatment concentrations may be sub-optimal for specific compounds, leading to false negative annotations.
Format: functional, Homo sapiens
Conditions: Compound Concentration 0.5 uM, Timepoint 60 hours, Culturing Media DMEM, 1 % Penicillin/Streptomycin, 10% Fetal bovin serum Add-On: No, Screening Media Control DMEM, Screening Media Samples DMEM
testReadout: autophagy induction (%)

compoundsmiles=CC1=C2C[C@H]3[C@@H](CC=C4C[C@@H](O)CC[C@@]43C)[C@@H]2CC[C@]12O[C@@H]1C[C@H](C)CN[C@H]1[C@H]2C observed=-7.179
compoundsmiles=CCCSc1nc(N[C@@H]2C[C@H]2c2ccc(F)c(F)c2)c2nnn([C@@H]3C[C@H](OCCO)[C@@H](O)[C@H]3O)c2n1 observed=-18.2861
compoundsmiles=CN(C)S(=O)(=O)c1ccc(NC(=S)N2CCC(C(O)(c3ccccc3)c3ccccc3)CC2)cc1 observed=-6.741

###

Tested on: U2OS
Assay: Here: values are normalized to the negative (DMSO; defined as 0% autophagy induction) and positive (250nM Torin1; mTOR inhibitor; defined as maximal inducer of autophagy = 100%) control compounds and represented as % of autophagy induction. […] The impact of autophagy induction on cells is complex and depends on the affected target. As such, the magnitude of a phenotype may not be equally mirrored in the %-value of autophagy induction and vice versa. The dynamics of the induction may indicate the mode of activation: e.g. activation via phosphorylation or a signaling cascade may occur fast, while activation via transcription factors may take considerably longer. […] Of note, treatment concentrations may be sub-optimal for specific compounds, leading to false negative annotations.
Type: functional, Homo sapiens
Details: Compound Concentration 2 uM, Timepoint 36 hours, Culturing Media DMEM, 1 % Penicillin/Streptomycin, 10% Fetal bovin serum Add-On: No, Screening Media Control DMEM, Screening Media Samples DMEM
# autophagy induction annotations
testReadout: autophagy induction (%)

compound="Cl.Clc1ccc(CCCOCCCN2CCCCC2)cc1 [PITOLISANT HYDROCHLORIDE]" observed=-60.8013
compound="CN(C(=O)Cc1ccc(Cl)c(Cl)c1)C(CN1CCCC1)c1cccc(OCC(=O)O)c1.Cl (centres undefined)" observed=-1.479
compound=O=C(O)C1CN(Cc2ccc(OCc3ccc(Cl)c(Cl)c3)cc2)C1 observed=0.6277
compound=Cc1nc(C#Cc2ccnc(Cl)c2)c(C)n1-c1ccc(OC(F)(F)F)cc1 observed=-1.142
compound=C/C(=N\NC(=O)[C@@H]1C(=O)NC[C@H]1c1ccccc1)c1cccc(Br)c1 observed=-3.37
compound=Cc1c(F)cccc1NC(=O)Nc1ccc(Cl)c(S(=O)(=O)[C@H]2CCCNC2)c1O observed=-60.7356
compound=O=C1O[C@]2(CC[C@H](C(=O)Nc3ccn(-c4ccccc4F)n3)CC2)c2cnccc21 observed=-2.648
compound=CCc1cc(C(C)=O)c(O)cc1OCCCCCC(C)(C)c1nn[nH]n1 observed=-1.36
compound=N#Cc1cccc(C(=O)Nc2cc(-c3ccccc3)nn2-c2ccccc2)c1 observed=-2.148

###

Test system: TERT-RPE1
Test: Here: values are normalized to the negative (DMSO; defined as 0% autophagy induction) and positive (250nM Torin1; mTOR inhibitor; defined as maximal inducer of autophagy = 100%) control compounds and represented as % of autophagy induction. […] The impact of autophagy induction on cells is complex and depends on the affected target. As such, the magnitude of a phenotype may not be equally mirrored in the %-value of autophagy induction and vice versa. The dynamics of the induction may indicate the mode of activation: e.g. activation via phosphorylation or a signaling cascade may occur fast, while activation via transcription factors may take considerably longer. […] Of note, treatment concentrations may be sub-optimal for specific compounds, leading to false negative annotations.
Assay type: functional, Homo sapiens
Conditions: Compound Concentration 1 uM, Timepoint 60 hours, Culturing Media DMEM/F12 (1:1), 1 % Penicillin/Streptomycin, 10% Fetal bovin serum Add-On: No, Screening Media Control DMEM/F12 (1:1), Screening Media Samples DMEM/F12 (1:1)
Cut-off -20% on autophagy induction, inclusive. At or above means fulfilled; below means not fulfilled.

compound=CC(C)c1ccc(CC(=O)N2CCC[C@@H](c3cccc(OC(C)(C)C(=O)O)c3)C2)cc1 categorylabel=fulfilled
compound="C=C1/C(=C\\C=C2/CCC[C@]3(C)[C@@H]([C@H](C)/C=C/C=C/C(O)(CC)CC)CC[C@@H]23)C[C@@H](O)C[C@@H]1O [SEOCALCITOL]" categorylabel=fulfilled
compound="O=S(=O)(c1ccccc1)N(CC(F)(F)F)c1ccc(C(O)(C(F)(F)F)C(F)(F)F)cc1 [T091317]" categorylabel="not fulfilled"
compound=CCOP(=O)(OCC)C(=Cc1cc(C(C)(C)C)c(O)c(C(C)(C)C)c1)P(=O)(OCC)OCC categorylabel="not fulfilled"
compound="CC(=O)Oc1ccc2c(c1)[C@@]1(C)CCC[C@](C)(C(=O)OC(=O)[C@@]3(C)CCC[C@]4(C)c5cc(OC(C)=O)ccc5CC[C@@H]34)[C@@H]1CC2 [ACETYL PODOCARPIC ACID ANHYDRIDE]" categorylabel=fulfilled
compound="CC(C)c1cc(Oc2c(Cl)cc(-n3nc(C#N)c(=O)[nH]c3=O)cc2Cl)n[nH]c1=O [RESMETIROM]" categorylabel=fulfilled
